molecular target: Kras and SOS1 (biotin-tagged human Kras loaded with GDP, His-tagged human SOS1) (Homo sapiens, UniProt P01116, G12D); construct: made in house; host or cells: E. coli (stated for Kras only); assay: Protein-protein interaction inhibition between Kras and SOS1 (KrasGl2D-SOS PPI) using AlphaScreen; assay type: binding; details: AlphaScreen; biotin-tagged human Kras loaded with GDP, His-tagged human SOS1; read-out: KRAS G12D-SOS PPI IC50
Sequence (P01116 1-188 isoform P01116-2 G12D): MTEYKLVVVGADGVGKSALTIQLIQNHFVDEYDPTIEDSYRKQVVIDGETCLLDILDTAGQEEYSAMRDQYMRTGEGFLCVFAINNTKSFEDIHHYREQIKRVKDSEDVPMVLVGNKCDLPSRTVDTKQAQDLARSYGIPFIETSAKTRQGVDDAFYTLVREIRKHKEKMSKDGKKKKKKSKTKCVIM
Starred links: 1 amine or outer side, 2 acyl side, 3 side chain; linkers in the order of their positions; H or OH if unused. Positions of bridges follow the written chain, without caps; N, C: chain ends. Non-standard residues stand in square brackets, D forms with d. Residues, ends and D or L forms follow the SMILES beside them. *: point of attachment. hPhe(3-Cl-4-CF3) = N[C@@H](CCc1ccc(C(F)(F)F)c(Cl)c1)C(=O)O; NMeAbu(4,4,4-F3) = CN[C@@H](CC(F)(F)F)C(=O)O; NMePhe(4-Me) = CN[C@@H](Cc1ccc(C)cc1)C(=O)O; NMePhe(2-F) = CN[C@@H](Cc1ccccc1F)C(=O)O; NMeGly(cPent) = CN[C@H](C(=O)O)C1CCCC1; X70 = CC(C)(O)COCCN(CC(=O)[*:2])[*:1]; NMeGly(cBu) = CN[C@H](C(=O)O)C1CCC1; NMeCha = CN[C@@H](CC1CCCCC1)C(=O)O; NMeChg = CN[C@H](C(=O)O)C1CCCCC1; NMeF = CN[C@@H](Cc1ccccc1)C(=O)O; NMeI = CC[C@H](C)[C@H](NC)C(=O)O; NMeD = CN[C@@H](CC(=O)O)C(=O)O; NMeL = CN[C@@H](CC(C)C)C(=O)O; NMeV = CN[C@H](C(=O)O)C(C)C; d(β3hA) = C[C@@H](N)CC(=O)O; Iva = CC[C@](C)(N)C(=O)O; Morpholide = C1CN(*)CCO1; NMeA = CN[C@@H](C)C(=O)O; Piperidide = C1CCN(*)CC1; dNMeA = CN[C@H](C)C(=O)O; Ac5c = NC1(C(=O)O)CCCC1; Aze = O=C(O)[C@@H]1CCN1; NBuGly = CCCCNCC(=O)O; Sar = CNCC(=O)O
ASSAY ENDPOINT: pIC50
Schema: pIC50 number; meaning minus log10 of the concentration expressed in molar units.

Query block: Identify pIC50 associated with the molecule CC[C@H](C)[C@@H]1NC(=O)[C@H](C)N(C)C(=O)C[C@@H](C)NC(=O)[C@H](C2CCCC2)N(C)C(=O)C2(CCCC2)NC(=O)[C@@H]2CCCN2C(=O)[C@H](CCc2ccc(C(F)(F)F)c(Cl)c2)NC(=O)[C@@H](C)N(C)C(=O)[C@H](Cc2ccccc2F)N(C)C(=O)[C@@H]2CCN2C(=O)[C@H](C)N(C)C1=O [Compound 990] (cyclo([Ac5c][NMeGly(cPent)][d(β3hA)][NMeA]I[NMeA][Aze][NMePhe(2-F)][dNMeA][hPhe(3-Cl-4-CF3)]P))
Result block: 7.08

Query block: Name the recorded pIC50 of the molecule listed here: CC[C@H](C)[C@@H]1NC(=O)[C@H](C)N(C)C(=O)C[C@@H](C)NC(=O)[C@H](C(C)C)N(C)C(=O)C2(CCCC2)NC(=O)[C@@H]2CCCN2C(=O)[C@H](CCc2ccc(C(F)(F)F)c(Cl)c2)NC(=O)CN(C)C(=O)[C@H](Cc2ccccc2)N(C)C(=O)[C@@H]2CCCN2C(=O)CN(C)C1=O [Compound 1778] (cyclo([Ac5c][NMeV][d(β3hA)][NMeA]I[Sar]P[NMeF][Sar][hPhe(3-Cl-4-CF3)]P))
Result block: 8.14

Query block: Retrieve pIC50 measured for CC[C@H](C)[C@@H]1NC(=O)[C@H](CC(C)C)N(C)C(=O)C[C@@H](C(=O)N2CCCCC2)N(C)C(=O)[C@H](C(C)C)N(C)C(=O)[C@](C)(CC)NC(=O)[C@@H]2CCCN2C(=O)[C@H](CCc2ccc(C(F)(F)F)c(Cl)c2)NC(=O)CN(C)C(=O)[C@H](CC2CCCCC2)N(C)C(=O)CN(C)C(=O)CN(C)C1=O [Compound 620] ([NMeL]I[Sar][Sar][NMeCha][Sar][hPhe(3-Cl-4-CF3)]P[Iva][NMeV][NMeD]-Piperidide; lactam N-11) and print it.
Result block: 7.96

Query block: For the molecule CC[C@H](C)[C@@H]1NC(=O)[C@H](CC(C)C)N(C)C(=O)C[C@@H](C(=O)N(C)C)N(C)C(=O)[C@H](C2CCCC2)N(C)C(=O)C2(CCCC2)NC(=O)CN(CCOCC(C)(C)O)C(=O)[C@H](CCc2ccc(C(F)(F)F)c(Cl)c2)NC(=O)CN(C)C(=O)[C@H](CC2CCCCC2)N(C)C(=O)[C@@H]2CCN2C(=O)[C@H](C)N(C)C1=O [Compound 2023] ([NMeL]I[NMeA][Aze][NMeCha][Sar][hPhe(3-Cl-4-CF3)][X70][Ac5c][NMeGly(cPent)][NMeD]-NMe2; lactam N-11) , report pIC50.
Result block: 8.77

Query block: Look up pIC50 of CC[C@H](C)[C@@H]1NC(=O)[C@H](CC(C)C)N(C)C(=O)C[C@@H](C(=O)N(C)C)N(C)C(=O)[C@H]([C@@H](C)CC)N(C)C(=O)C2(CCCC2)NC(=O)[C@@H](C)N(C)C(=O)[C@H](CCc2ccc(C(F)(F)F)c(Cl)c2)NC(=O)CN(C)C(=O)[C@H](Cc2ccc(C)cc2)N(C)C(=O)[C@@H]2CCN2C(=O)[C@H](C)N(C)C1=O [Compound 288] ([NMeL]I[NMeA][Aze][NMePhe(4-Me)][Sar][hPhe(3-Cl-4-CF3)][dNMeA][Ac5c][NMeI][NMeD]-NMe2; lactam N-11) and report it.
Result block: 8.77

Query block: Report measured pIC50; entry is CC[C@H](C)[C@@H]1NC(=O)[C@H](C2CCC2)N(C)C(=O)C[C@@H](C(=O)N2CCCCC2)N(C)C(=O)[C@H](C2CCCCC2)N(C)C(=O)C2(CCCC2)NC(=O)[C@@H]2CCCN2C(=O)[C@H](CCc2ccc(C(F)(F)F)c(Cl)c2)NC(=O)CN(C)C(=O)[C@H](CC2CCCCC2)N(C)C(=O)CN(C)C(=O)CN(C)C1=O [Compound 562] ([NMeGly(cBu)]I[Sar][Sar][NMeCha][Sar][hPhe(3-Cl-4-CF3)]P[Ac5c][NMeChg][NMeD]-Piperidide; lactam N-11)
Result block: 9.25

Query block: Please report the measured pIC50 for CCCCN1CC(=O)N(C)[C@@H](CC2CCCCC2)C(=O)N(C)CC(=O)N[C@@H](CCc2ccc(C(F)(F)F)c(Cl)c2)C(=O)N2CCC[C@H]2C(=O)NC2(CCCC2)C(=O)N(C)[C@@H](C(C)C)C(=O)N[C@H](C)CC(=O)N(C)[C@@H](CC(C)C)C(=O)N[C@@H]([C@@H](C)CC)C(=O)N(C)CC1=O [Compound 1033] (cyclo([Ac5c][NMeV][d(β3hA)][NMeL]I[Sar][NBuGly][NMeCha][Sar][hPhe(3-Cl-4-CF3)]P))
Result block: 6.44

Query block: Find the measured pIC50 of CC[C@H](C)[C@@H]1NC(=O)[C@H](CC(F)(F)F)N(C)C(=O)C[C@@H](C(=O)N2CCOCC2)N(C)C(=O)[C@H](C2CCCCC2)N(C)C(=O)C2(CCCC2)NC(=O)[C@@H]2CCCN2C(=O)[C@H](CCc2ccc(C(F)(F)F)c(Cl)c2)NC(=O)CN(C)C(=O)[C@H](Cc2ccc(C)cc2)N(C)C(=O)CN(C)C(=O)CN(C)C1=O [Compound 1001] ([NMeAbu(4,4,4-F3)]I[Sar][Sar][NMePhe(4-Me)][Sar][hPhe(3-Cl-4-CF3)]P[Ac5c][NMeChg][NMeD]-Morpholide; lactam N-11) and report it.
Result block: 9.36

Query block: Please supply the value of reported pIC50 for the item CC[C@H](C)[C@@H]1NC(=O)[C@H](C)N(C)C(=O)C[C@@H](C)NC(=O)[C@H](C(C)C)N(C)C(=O)C2(CCCC2)NC(=O)[C@@H]2CCCN2C(=O)[C@H](CCc2ccc(C(F)(F)F)c(Cl)c2)NC(=O)CN(C)C(=O)[C@H](CC2CCCCC2)N(C)C(=O)CN(C)C(=O)CN(C)C1=O [Compound 697] (cyclo([Ac5c][NMeV][d(β3hA)][NMeA]I[Sar][Sar][NMeCha][Sar][hPhe(3-Cl-4-CF3)]P))
Result block: 7.92

====

biological target: Kras and SOS1 (biotin-tagged human Kras loaded with GDP, His-tagged human SOS1) (Homo sapiens, UniProt P01116, G12D); construct: made in house; host or cells: E. coli (stated for Kras only); assay: Protein-protein interaction inhibition between Kras and SOS1 (KrasGl2D-SOS PPI) using AlphaScreen; type: binding; settings: AlphaScreen; biotin-tagged human Kras loaded with GDP, His-tagged human SOS1; read-out: KRAS G12D-SOS PPI IC50
Starred links: 1 amine or outer side, 2 acyl side, 3 side chain; linkers in the order of their positions; H or OH if unused. Positions of bridges follow the written chain, without caps; N, C: chain ends. Non-standard residues stand in square brackets, D forms with d. Residues, ends and D or L forms follow the SMILES beside them. *: point of attachment. hPhe(3-Cl-4-CF3) = N[C@@H](CCc1ccc(C(F)(F)F)c(Cl)c1)C(=O)O; hPhe(4-CF3) = N[C@@H](CCc1ccc(C(F)(F)F)cc1)C(=O)O; 3Oxa8azabicyclo(3.2.1)octane = C1CC2COCC1N2*; NMePhe(4-Cl) = CN[C@@H](Cc1ccc(Cl)cc1)C(=O)O; NMePhe(4-Me) = CN[C@@H](Cc1ccc(C)cc1)C(=O)O; NMedβ3hAla = C[C@H](CC(=O)[*:2])N(C)[*:1]; NMeAla(cPent) = CN[C@@H](CC1CCCC1)C(=O)O; Phe(3-I) = N[C@@H](Cc1cccc(I)c1)C(=O)O; Pro(4,4-F2) = O=C(O)[C@@H]1CC(F)(F)CN1; NMeCha = CN[C@@H](CC1CCCCC1)C(=O)O; NMeChg = CN[C@H](C(=O)O)C1CCCCC1; NMeF = CN[C@@H](Cc1ccccc1)C(=O)O; NMeD = CN[C@@H](CC(=O)O)C(=O)O; NMeL = CN[C@@H](CC(C)C)C(=O)O; Cba = N[C@@H](CC1CCC1)C(=O)O; NMeNva = CCC[C@H](NC)C(=O)O; Morpholide = C1CN(*)CCO1; NMeA = CN[C@@H](C)C(=O)O; NMeAib = CNC(C)(C)C(=O)O; Nle = CCCC[C@H](N)C(=O)O; Piperidide = C1CCN(*)CC1; Pyrrolidide = C1CCN(*)C1; Ac5c = NC1(C(=O)O)CCCC1; Ac4c = NC1(C(=O)O)CCC1; Sar = CNCC(=O)O
I'd be grateful if you could share measured IC50 for these entries.
Respond with the bare value in nM.

Query block: Respond only with IC50 recorded for CCC[C@H]1C(=O)N[C@@H]([C@@H](C)CC)C(=O)N(C)CC(=O)N(C)CC(=O)N(C)[C@@H](Cc2ccc(C)cc2)C(=O)N(C)CC(=O)N[C@@H](CCc2ccc(C(F)(F)F)c(Cl)c2)C(=O)N2CCC[C@H]2C(=O)NC2(CCCC2)C(=O)N(C)[C@@H](C2CCCCC2)C(=O)N(C)[C@H](C(=O)N2CCOCC2)CC(=O)N1C [Compound 1871] ([NMeNva]I[Sar][Sar][NMePhe(4-Me)][Sar][hPhe(3-Cl-4-CF3)]P[Ac5c][NMeChg][NMeD]-Morpholide; lactam N-11)
Result block: 0.48

Query block: For the molecule CC[C@H](C)[C@@H]1NC(=O)[C@H](CC(C)C)N(C)C(=O)C[C@@H](C)N(C)C(=O)[C@H](C2CCCCC2)N(C)C(=O)C2(CCC2)NC(=O)[C@@H]2CC(F)(F)CN2C(=O)[C@H](CCc2ccc(C(F)(F)F)c(Cl)c2)NC(=O)CN(C)C(=O)[C@H](CC2CCCCC2)N(C)C(=O)CN(C)C(=O)CN(C)C1=O [Compound 241] (cyclo([Ac4c][NMeChg][NMedβ3hAla][NMeL]I[Sar][Sar][NMeCha][Sar][hPhe(3-Cl-4-CF3)][Pro(4,4-F2)])) , report IC50.
Result block: 18

Query block: Using the record for CC[C@H](C)[C@@H]1NC(=O)[C@H](C)N(C)C(=O)C[C@@H](C(=O)N2CCCC2)NC(=O)[C@H](CC(C)C)N(C)C(=O)[C@H](Cc2ccccc2)N(C)C(=O)[C@H](CC(C)C)N(C)C(=O)[C@H](CCc2ccc(C(F)(F)F)cc2)NC(=O)CN(C)C(=O)[C@H](Cc2ccc(Cl)cc2)N(C)C(=O)CN(C)C(=O)CN(C)C1=O [Compound 199] ([NMeA]I[Sar][Sar][NMePhe(4-Cl)][Sar][hPhe(4-CF3)][NMeL][NMeF][NMeL]D-Pyrrolidide; lactam N-11) , state its measured IC50.
Result block: 36

Query block: Note down IC50 recorded for CC[C@H](C)[C@@H]1NC(=O)[C@H](CC(C)C)N(C)C(=O)C[C@@H](C(=O)N2C3CCC2COC3)N(C)C(=O)[C@H](C2CCCCC2)N(C)C(=O)C2(CCCC2)NC(=O)[C@@H]2CCCN2C(=O)[C@H](CCc2ccc(C(F)(F)F)c(Cl)c2)NC(=O)CN(C)C(=O)[C@H](CC2CCCC2)N(C)C(=O)CN(C)C(=O)CN(C)C1=O [Compound 1976] ([NMeL]I[Sar][Sar][NMeAla(cPent)][Sar][hPhe(3-Cl-4-CF3)]P[Ac5c][NMeChg][NMeD]-{3Oxa8azabicyclo(3.2.1)octane}; lactam N-11)
Result block: 1.5

Query block: Specify measured IC50 for CCCC[C@@H]1NC(=O)[C@H](Cc2cccc(I)c2)NC(=O)CN(C)C(=O)[C@H](Cc2ccc(Cl)cc2)N(C)C(=O)CN(C)C(=O)CN(C)C(=O)[C@H]([C@@H](C)CC)NC(=O)[C@H](CC(C)C)N(C)C(=O)C[C@@H](C(=O)N2CCCCC2)N(C)C(=O)[C@H](CC2CCC2)NC(=O)C(C)(C)N(C)C1=O [Compound 1422] ([NMeL]I[Sar][Sar][NMePhe(4-Cl)][Sar][Phe(3-I)][Nle][NMeAib][Cba][NMeD]-Piperidide; lactam N-11) .
Result block: 16
